- target: SHLD3;SHLD2 1-95;REV7 R124A (human;human;human, UniProt Q6ZNX1;Q86V20-2;Q9UI95 1-250;1-95;1-211, ||R124A)
- Sequence (Q6ZNX1 whole entry, chain 1 of 3): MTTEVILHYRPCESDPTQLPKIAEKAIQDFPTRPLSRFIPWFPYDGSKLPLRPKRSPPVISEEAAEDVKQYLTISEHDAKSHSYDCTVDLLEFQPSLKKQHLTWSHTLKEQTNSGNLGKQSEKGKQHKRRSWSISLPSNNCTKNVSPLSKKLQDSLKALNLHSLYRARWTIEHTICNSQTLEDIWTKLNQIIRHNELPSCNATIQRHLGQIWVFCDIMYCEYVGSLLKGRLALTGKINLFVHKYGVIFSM
- Sequence (Q86V20 1-95, chain 2 of 3): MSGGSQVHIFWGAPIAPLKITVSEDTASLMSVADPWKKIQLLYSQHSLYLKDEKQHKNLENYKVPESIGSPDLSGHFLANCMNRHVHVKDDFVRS
- Sequence (Q9UI95 whole entry R124A, chain 3 of 3): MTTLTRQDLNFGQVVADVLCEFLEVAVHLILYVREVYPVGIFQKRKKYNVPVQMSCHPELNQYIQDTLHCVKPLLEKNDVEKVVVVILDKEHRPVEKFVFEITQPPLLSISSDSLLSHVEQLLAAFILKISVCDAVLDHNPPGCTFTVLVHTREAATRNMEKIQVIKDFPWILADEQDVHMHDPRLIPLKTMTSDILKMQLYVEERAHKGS
- method-summary: fluorescence anisotropy; 20 mM Na-HEPES pH 7.5, 5% glycerol, 100 mM NaCl, 0.5 mM TCEP; 10 nM DNA, 30 min, room temperature
- experimental-conditions: protein: recombinant;recombinant;recombinant; tags: tags cleaved (PreScission);GST tag, cleaved (PreScission);tags cleaved (PreScission); copies: 1;1;2; label: 5(6)-FAM
reported-property: Kd (nM)
Give the number; nM is assumed, so skip it.

Which value of Kd has been reported for TTAGGGTTAGGG (ssDNA) [telomeric ssDNA] in the records?
207

Then this binder: AGTGCCAGTGCC (ssDNA) [non-telomeric ssDNA]
137
